Listing of entries alongside the reported Emax.
- Tested on: UniProt P28335
- Sequence (P28335 33-458): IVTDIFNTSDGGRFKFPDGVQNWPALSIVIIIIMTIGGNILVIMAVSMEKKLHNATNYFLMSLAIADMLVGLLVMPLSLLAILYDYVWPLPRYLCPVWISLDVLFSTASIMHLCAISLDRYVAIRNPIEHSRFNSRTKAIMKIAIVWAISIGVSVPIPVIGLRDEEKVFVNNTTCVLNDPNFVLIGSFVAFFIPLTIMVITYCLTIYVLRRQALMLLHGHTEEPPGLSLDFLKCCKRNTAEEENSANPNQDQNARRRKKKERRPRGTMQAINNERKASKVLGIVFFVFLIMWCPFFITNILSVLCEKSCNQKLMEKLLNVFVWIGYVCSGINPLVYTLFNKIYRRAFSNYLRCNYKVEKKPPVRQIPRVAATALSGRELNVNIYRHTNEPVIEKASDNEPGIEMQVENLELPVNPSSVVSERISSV
- Procedure details: Human 5-HT2C functional high throughput screening assay in CHO-K1 cells (calcium flux)
- Format: cell-based
- Design: expressed in transfected cells; host or cells: CHO-K1 cells
- Measurement context: CHO-K1; 5-HT2C; maximum functional response as percentage relative to the effect of serotonin

{"Compound": "Fc1cccc2c1[C@H]1CNC[C@@H]1CCO2 (relative stereo) [Example 287]", "Recorded endpoint": "Emax", "Experimental result": "95%"}
{"Compound": "Brc1cccc2c1OCC[C@H]1CNC[C@@H]21 (relative stereo) [Example 332]", "Recorded endpoint": "Emax", "Experimental result": "90%"}
{"Compound": "O=C1NC[C@@H]2CN(Cc3ccccc3)C[C@H]2c2ccc(F)cc21 (relative stereo) [Example 55]", "Recorded endpoint": "Emax", "Experimental result": "120%"}
{"Compound": "O=C1NC[C@@H]2CNC[C@H]2c2cccc(OC(F)(F)F)c21 (relative stereo) [Example 103]", "Recorded endpoint": "Emax", "Experimental result": "> 120%"}
{"Compound": "O=C1NC[C@@H]2CNC[C@H]2c2cccnc21 (relative stereo) [Example 157]", "Recorded endpoint": "Emax", "Experimental result": "110%"}

Input: Which value of Emax has been reported for Cc1cc2c(cc1F)C(=O)NC[C@@H]1CNC[C@H]21 (relative stereo) [Example 279] in the records?
Output: > 120%

Input: Which value of Emax has been reported for CC(=O)c1cccc(-c2ccc3c(c2)C(=O)NC[C@@H]2CNC[C@@H]32)c1.Cl (relative stereo) [Example 236, hydrochloride] in the records?
Output: > 120%

Input: Which value of Emax has been reported for CN1C[C@H]2CNC(=O)c3cc(C4CCCC4)ccc3[C@@H]2C1 (relative stereo) [Example 205] in the records?
Output: 90%

Input: Which value of Emax has been reported for COc1cccc2c1[C@H]1CN(C)C[C@@H]1CCO2 (relative stereo) [Example 273] in the records?
Output: > 120%
